- tested.system: Bcl-2-like protein 2 (Homo sapiens, UniProt Q92843)
- Sequence (Q92843 whole entry): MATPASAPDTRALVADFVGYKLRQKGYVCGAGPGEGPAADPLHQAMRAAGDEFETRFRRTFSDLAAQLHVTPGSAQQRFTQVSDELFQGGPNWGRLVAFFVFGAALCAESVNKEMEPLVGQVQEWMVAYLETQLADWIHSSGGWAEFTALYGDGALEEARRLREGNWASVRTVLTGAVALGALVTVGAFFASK
measure: IC50 (µM)
The answer is to be given in µM; state only the numeric part.

{"columns": ["record.smiles", "tested.system", "measure.unit", "IC50"],
 "data": [
  ["CCCCc1c(-c2ccccc2Oc2ccccc2)ncn1CCc1ccccc1OC", "Bcl-2-like protein 2 (Homo sapiens, UniProt Q92843)", "µM", 8.09]
]}

Incoming: Give the observed IC50 of CCCCc1c(-c2ccccc2OC)ncn1Cc1cccc(-c2ccccc2)c1 for Bcl-2-like protein 2 (Homo sapiens, UniProt Q92843).
Outgoing: 26.9

Sourced from ChEMBL document CHEMBL1139032
